Where these numbers come from: patent US11427548B2

Dmax values by entry
Biological target: Androgen Receptor (Homo sapiens, UniProt P10275)
Construct: endogenous in cells; host or cells: VCaP cells
Sequence (P10275 whole entry): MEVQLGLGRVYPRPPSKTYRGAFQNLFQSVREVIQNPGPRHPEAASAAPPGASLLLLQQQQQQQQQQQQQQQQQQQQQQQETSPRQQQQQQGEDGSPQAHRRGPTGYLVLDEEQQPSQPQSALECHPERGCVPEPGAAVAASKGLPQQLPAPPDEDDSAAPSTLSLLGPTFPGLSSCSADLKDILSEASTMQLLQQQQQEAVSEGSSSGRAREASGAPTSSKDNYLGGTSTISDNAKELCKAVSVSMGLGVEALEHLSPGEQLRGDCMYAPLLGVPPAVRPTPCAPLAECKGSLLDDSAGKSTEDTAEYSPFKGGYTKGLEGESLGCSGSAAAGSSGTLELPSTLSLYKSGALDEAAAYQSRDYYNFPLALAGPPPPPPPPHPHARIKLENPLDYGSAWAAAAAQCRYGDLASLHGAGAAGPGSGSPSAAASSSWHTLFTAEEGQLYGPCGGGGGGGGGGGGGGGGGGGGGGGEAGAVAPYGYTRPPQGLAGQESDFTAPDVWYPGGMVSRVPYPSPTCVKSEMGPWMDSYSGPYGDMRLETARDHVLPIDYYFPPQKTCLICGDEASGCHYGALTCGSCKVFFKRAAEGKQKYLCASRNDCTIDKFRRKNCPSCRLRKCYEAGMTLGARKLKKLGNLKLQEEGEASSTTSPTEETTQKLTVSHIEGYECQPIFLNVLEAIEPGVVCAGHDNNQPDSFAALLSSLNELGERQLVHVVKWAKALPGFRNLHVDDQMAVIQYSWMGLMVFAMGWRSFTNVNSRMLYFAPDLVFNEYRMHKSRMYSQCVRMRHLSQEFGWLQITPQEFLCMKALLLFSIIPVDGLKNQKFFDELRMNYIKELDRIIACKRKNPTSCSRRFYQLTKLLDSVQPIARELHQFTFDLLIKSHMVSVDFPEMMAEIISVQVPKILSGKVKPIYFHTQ
Assay: Androgen Receptor ELISA assay (PathScan AR ELISA) in VCaP cells: AR degradation, Dmax and DC50
Format: cell-based
Details: VCaP, read-out: VCaP Dmax (%)

MOLECULE | Dmax
Cc1ncsc1-c1ccc(CNC(=O)[C@@H]2C[C@@H](O)CN2C(=O)[C@@H](C(C)C)n2cc(OCCCOCCCCCOc3ccc(N4C(=S)N(c5ccc(C#N)c(C(F)(F)F)c5)C(=O)C4(C)C)cc3)cn2)nc1 (racemic) | < 25%
Cc1ncsc1-c1ccc(CNC(=O)[C@@H]2C[C@@H](O)CN2C(=O)C(C(C)C)n2cccc(OCCCCOc3ccc(-c4ccc(N5C(=S)N(c6ccc(C#N)c(C(F)(F)F)c6)C(=O)C5(C)C)cc4)cc3)c2=O)cc1 (stereo partly shown) | < 25%
Cc1ncsc1-c1ccc([C@@H](NC(=O)[C@@H]2C[C@@H](O)CN2C(=O)[C@@H](NC(=O)CN2CCN(CCCc3ccc(C(=O)N[C@H]4C(C)(C)[C@H](Oc5ccc(C#N)c(C(F)(F)F)c5)C4(C)C)cc3)CC2)C(C)(C)C)C2COC2)cc1 | < 25%
Cc1ncsc1-c1ccc(CNC(=O)[C@H]2C[C@@H](O)CN2C(=O)[C@@H](NC(=O)[C@@H](C)Oc2ccc(OCCOc3ccc(N4C(=S)N(c5ccc(C#N)c(C(F)(F)F)c5)C(=O)C4(C)C)cc3)cc2)C(C)(C)C)cc1 | 26 to 50%
